Target: T1, human TL1A extracellular domain with N-terminal HIS and FLAG tag (human, UniProt O95150 72-251)
T1 construct: the whole entry is named; also called TNFSF15
T1 sequence: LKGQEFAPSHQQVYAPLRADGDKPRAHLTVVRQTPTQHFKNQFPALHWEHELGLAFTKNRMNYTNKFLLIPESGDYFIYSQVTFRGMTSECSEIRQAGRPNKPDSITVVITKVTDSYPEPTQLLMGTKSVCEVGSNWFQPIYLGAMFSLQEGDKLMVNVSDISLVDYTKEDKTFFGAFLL
Assay: SPR Run 7, antibody on Protein A, TL1A 5 ug/mL, timepoint 44
observation type: TL1A Binding Level (Early) (RU)
Express your answer in RU, writing the number without its unit.

Sample records with TL1A Binding Level (Early):
{"binder": "320-519 (antibody, human IgG1, name in Kabat numbering, V domains shown, full-length human IgG1, lambda) VH: QVQLVQSGAEVKKPGASVKVSCKASGYTFTSYDINWVRQAPGQGLEWMGWLNPKSGNTGYAQKFQGRVTMTADRSTSTAYMELSSLRSEDTAVYYCAREVPETAAFEYWGQGTLVTVSS VL: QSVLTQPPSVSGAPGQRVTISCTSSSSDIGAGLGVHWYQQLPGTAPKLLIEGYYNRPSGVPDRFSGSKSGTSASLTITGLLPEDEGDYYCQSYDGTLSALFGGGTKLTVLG", "TL1A Binding Level (Early) / RU": 217}
{"binder": "320-532 (antibody, human IgG1, name in Kabat numbering, V domains shown, full-length human IgG1, lambda) VH: QVQLVQSGAEVKKPGASVKVSCKASGYTFTSYDINWVRQAPGQGLEWMGWLNPNSSNTGYAQKFQGRVTMTADRSTSTAYMELSSLRSEDTAVYYCAREVPETAAFEYWGQGTLVTVSS VL: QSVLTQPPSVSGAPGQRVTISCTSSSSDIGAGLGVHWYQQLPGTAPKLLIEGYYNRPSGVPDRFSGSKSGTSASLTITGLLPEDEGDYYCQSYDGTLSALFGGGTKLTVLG", "TL1A Binding Level (Early) / RU": 10}

Turning to the following binder.
(Q) State the recorded TL1A Binding Level (Early) for this entry: 320-535 (antibody, human IgG1, name in Kabat numbering, V domains shown, full-length human IgG1, lambda) VH: QVQLVQSGAEVKKPGASVKVSCKASGYTFTSYDINWVRQAPGQGLEWMGWLNPNSHNTGYAQKFQGRVTMTADRSTSTAYMELSSLRSEDTAVYYCAREVPETAAFEYWGQGTLVTVSS VL: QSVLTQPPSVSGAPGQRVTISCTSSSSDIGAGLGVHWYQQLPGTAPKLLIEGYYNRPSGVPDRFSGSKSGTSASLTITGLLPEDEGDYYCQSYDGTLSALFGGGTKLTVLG
(A) 126
